target: µ-opioid receptor (MOR), Human-ORPM1 (human, UniProt P35372 1-400); assay: cell-based or functional assay
Sequence (P35372 whole entry): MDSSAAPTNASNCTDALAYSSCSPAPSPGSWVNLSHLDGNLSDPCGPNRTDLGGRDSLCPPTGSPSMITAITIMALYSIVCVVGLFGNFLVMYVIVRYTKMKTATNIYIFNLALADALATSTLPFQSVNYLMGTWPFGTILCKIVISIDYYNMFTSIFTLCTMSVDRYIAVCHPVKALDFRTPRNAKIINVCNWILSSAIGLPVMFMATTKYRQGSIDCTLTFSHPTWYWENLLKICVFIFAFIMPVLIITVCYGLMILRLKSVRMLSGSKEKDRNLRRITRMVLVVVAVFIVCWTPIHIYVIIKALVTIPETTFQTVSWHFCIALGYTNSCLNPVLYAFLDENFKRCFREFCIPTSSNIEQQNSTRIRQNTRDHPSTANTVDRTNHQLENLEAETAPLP
Square brackets hold non-standard residues; d marks the D form. Dmt = Cc1cc(O)cc(C)c1C[C@H](N)C(=O)O; β3hF = N[C@H](CC(=O)O)Cc1ccccc1; dNMeA = CN[C@H](C)C(=O)O; Sar = CNCC(=O)O
Endpoint Label: MOR EC50

H-[Dmt][dY]G[β3hF][Sar]-NH2 (SMILES Cc1cc(O)cc(C)c1C[C@H](N)C(=O)N[C@H](Cc1ccc(O)cc1)C(=O)NCC(=O)N[C@H](CC(=O)N(C)CC(N)=O)Cc1ccccc1) [H-DMT-(D)Tyr-G-bhF-Sar-NH2] :: ≤ 1 nM

Query: Recorded MOR EC50 for H-[Dmt][dNMeA]XG-NH2 (not fully specified (residue 3); printed as DMT-N(Me)a-Aba-G) [H-DMT-N(Me)-a-Aba-G-NH2] , please?
Response: ≤ 1 nM
